Here, each record is paired with measured pIC50 data.
Test system: HeLa
ASSAY_EXPLANATION: Anticancer activity against human HeLa cells assessed as cell viability measured after 72 hrs by MTT assay
Format: functional, cell-based
Scale note: pIC50 = -log10(concentration in M).

Answered cases to consult:
COc1ccc(C[C@H](NC(=O)[C@H](C)NC(=O)c2ccc(-c3ccc(C(C)=O)cc3)o2)C(=O)N[C@@H](CC(C)C)C(=O)C(=O)Nc2ccccc2)cc1 = 5.49
COc1cc(NC(=O)C(=O)[C@H](CC(C)C)NC(=O)[C@H](CC(C)C)NC(=O)[C@H](CC(C)C)NC(=O)OCc2ccccc2)cc(OC)c1 = 6.92
CCc1cccc(NC(=O)C(=O)[C@H](CC(C)C)NC(=O)[C@H](CC(C)C)NC(=O)[C@H](CC(C)C)NC(=O)OCc2ccccc2)c1 = 6.67
COc1ccc(C[C@H](NC(=O)[C@H](C)NC(=O)c2ccc(-c3ccccc3)cc2)C(=O)N[C@@H](CC(C)C)C(=O)C(=O)Nc2ccccc2)cc1 = 5.06

Inquiry: Look up pIC50 of CC(C)C[C@H](NC(=O)OCc1ccccc1)C(=O)N[C@@H](CC(C)C)C(=O)N[C@@H](CC(C)C)C(=O)C(=O)Nc1ccccc1 and report it.
Reply text: 6.54

The measured values listed here are drawn from ChEMBL document CHEMBL4732244.
